Data origin: PubChem BioAssay (Tox21)

method.summary: qHTS assay to identify small molecule antagonists of the estrogen related receptor (ERR) signaling pathway from Tox21 library - cell viability counter screen (AID 1224834); also: nearly all actives have a fitted effect of over 30% in size
settings: ERR reporter cells viability, CellTiter-Fluor, 17.5 h; series mostly up to 92.4 µM
Description: National Center for Advancing Translational Sciences [NCATS] NIH Chemical Genomics Center [NCGC] U.S. Environmental Protection Agency [EPA] National Institutes of Environmental Health Sciences [NIEHS] National Toxicology Program [NTP] […] The ERR cells were dispensed at 2,000 cells/5 ul/well in 1536-well white plates using a Multidrop dispenser. […] After 30-minute incubation at 37 C/5% CO2, the fluorescence intensity in the plates was measured using a ViewLux plate reader.
Inconclusive results are not listed. Active and inactive are the calls of the source. Calls follow the shape of the dose curve; as a rule, active = well fitted cell-killing curve with a large enough effect in the repeat runs; inconclusive = weak or mixed curves; inactive = flat fitted curve, though single readings scatter.
Classes to choose from: YES (active), NO (inactive)

Sample answers from the record:
[[record]]
molecule = "CNC1CCCN(c2c(F)cc3c(=O)c(C(=O)O)cn(C4CC4)c3c2OC)C1 (centres undefined)"
group_label = "NO"

[[record]]
molecule = "O=C(c1ccccc1)c1ccc(O)cc1"
group_label = "YES"

[[record]]
molecule = "CCN(Cc1cccc(S(=O)(=O)O)c1)c1ccc(C(=C2C=CC(=[N+](CC)Cc3cccc(S(=O)(=O)O)c3)C=C2)c2ccc(O)cc2S(=O)(=O)[O-])cc1"
group_label = "YES"

[[record]]
molecule = "CC[C@H]1OC(=O)[C@H](C)[C@@H](O[C@H]2C[C@@](C)(OC)[C@@H](O)[C@H](C)O2)[C@H](C)[C@@H](O[C@@H]2O[C@H](C)C[C@H](N(C)C)[C@H]2O)[C@](C)(O)C[C@@H](C)C(=O)[C@H](C)[C@@H](O)[C@]1(C)O"
group_label = "NO"

[[record]]
molecule = "O=C(O)/C=C/c1ccc(O)c(O)c1"
group_label = "NO"


(Q) Just curious, what result did "CCN(CC)CC(=O)Nc1c(C)cccc1C(=O)OC" get here?
(A) NO

(Q) Just curious, what result did "CC(=O)OCC1=C(C(=O)O)N2C(=O)[C@@H](NC(=O)CSc3ccncc3)[C@H]2SC1" get here?
(A) NO

(Q) Just curious, what result did CCC1CCC(CCC(=O)O)C1 (centres undefined) get here?
(A) NO

(Q) Just curious, what result did "Nc1ccc(F)cc1" get here?
(A) NO
